Data credit: DBAASP

# Tested on: Enterococcus faecium
MEASURED_ENDPOINT: MIC
Hey, just the number and the unit after it is fine.

input: Param item = CC[C@H](C)[C@H](NC(=O)[C@H](CCCCN)NC(=O)[C@H](Cc1c[nH]c2ccccc12)NC(=O)[C@H](CCCN=C(N)N)NC(=O)[C@H](CCCN=C(N)N)NC(=O)CNC(=O)[C@H](Cc1cnc[nH]1)NC(=O)CNC(=O)CN)C(=O)N[C@H](C(=O)N[C@H](C(=O)N[C@H](C(=O)N[C@@H](CCCN=C(N)N)C(=O)N[C@@H](Cc1c[nH]c2ccccc12)C(=O)N[C@@H](CCCN=C(N)N)C(=O)N[C@@H](CCCN=C(N)N)C(N)=O)[C@@H](C)CC)C(C)C)C(C)C [GGHGRRWKIVVIRWRR] ; retrieve measured MIC.
output: 0.3 µM

====

# Test system: Salmonella enterica subsp. enterica serovar Typhimurium C77-31
MEASURED_ENDPOINT: MIC

input: Param item = CC[C@H](C)[C@H](NC(=O)[C@H](Cc1c[nH]c2ccccc12)NC(=O)[C@H](CCCCN)NC(=O)[C@H](CC(C)C)NC(=O)[C@@H](NC(=O)[C@H](CCCCN)NC(=O)CNC(=O)[C@@H](NC(=O)[C@H](CCCCN)NC(=O)[C@H](Cc1c[nH]c2ccccc12)NC(=O)[C@H](CC(C)C)NC(=O)[C@@H](N)CCCN=C(N)N)[C@@H](C)CC)C(C)C)C(N)=O [RLWKIGKVLKWI] ; retrieve measured MIC.
output: 4 µM

====

# Tested on: Bacillus megaterium Bm11
MEASURED_ENDPOINT: MIC (µM)
One number for each entry, in µM.

input: For the record `CC(C)C[C@H](NC(=O)[C@H](Cc1ccc(O)cc1)NC(=O)[C@@H]1CCCN1C(=O)[C@@H]1CCCN1C(=O)[C@H](CCCN=C(N)N)NC(=O)[C@@H]1CCCN1C(=O)[C@H](CCCN=C(N)N)NC(=O)[C@H](CCCN=C(N)N)NC(=O)[C@@H](N)CCCN=C(N)N)C(=O)N1CCC[C@H]1C(=O)N[C@@H](CCCN=C(N)N)C(=O)N1CCC[C@H]1C(=O)N[C@@H](CCCN=C(N)N)C(=O)N1CCC[C@H]1C(=O)N1CCC[C@H]1C(=O)O` , what value of MIC is listed for Bacillus megaterium Bm11?
output: 8

====

MIC tested on Acinetobacter baumannii: recorded values
Numbers only, in µM.

Would you please look over these solved cases?
ITEM_SMILES: CC[C@H](C)[C@H](NC(=O)[C@H](CCCN=C(N)N)NC(=O)[C@H](CCCCN)NC(=O)[C@@H](NC(=O)[C@@H](N)Cc1ccccc1)[C@@H](C)CC)C(=O)N[C@@H](C)C(=O)N[C@@H](CCCN=C(N)N)C(=O)N[C@@H](CC(C)C)C(=O)N[C@@H](CC(C)C)C(=O)N[C@@H](CCCN=C(N)N)C(=O)N[C@@H](CCCCN)C(=O)N[C@H](C(=O)N[C@@H](Cc1ccccc1)C(N)=O)[C@@H](C)CC
MEASURED_ENDPOINT: MIC
VALUE_OBSERVED: 4.22
--
ITEM_SMILES: CSCC[C@H](NC(=O)[C@H](C)NC(C)=O)C(=O)N[C@H](C(=O)NCC(=O)N[C@H](C(=O)O)[C@@H](C)O)C(C)C
MEASURED_ENDPOINT: MIC
VALUE_OBSERVED: 26.3
--
ITEM_SMILES: C[C@H](NC(=O)[C@H](Cc1c[nH]c2ccccc12)NC(=O)[C@H](Cc1c[nH]c2ccccc12)NC(=O)[C@H](CCCN=C(N)N)NC(=O)[C@H](CCCN=C(N)N)NC(=O)[C@H](Cc1c[nH]c2ccccc12)NC(=O)[C@H](CCCN=C(N)N)NC(=O)[C@H](CCCN=C(N)N)NC(=O)[C@H](Cc1c[nH]c2ccccc12)NC(=O)[C@H](Cc1c[nH]c2ccccc12)NC(=O)CN)C(N)=O
MEASURED_ENDPOINT: MIC
VALUE_OBSERVED: 1
--
ITEM_SMILES: CC[C@H](C)[C@H](NC(=O)[C@H](CCCN=C(N)N)NC(=O)[C@H](CC(C)C)NC(=O)[C@@H](NC(=O)[C@H](Cc1ccccc1)NC(=O)[C@H](CCCN=C(N)N)NC(=O)[C@H](C)NC(=O)[C@@H](N)CC(C)C)C(C)C)C(=O)N[C@@H](CC(C)C)C(=O)N[C@@H](CCCCN)C(=O)N[C@@H](Cc1ccc(O)cc1)C(=O)NCC(=O)N[C@@H](Cc1ccccc1)C(=O)N[C@@H](CCCCN)C(=O)O
MEASURED_ENDPOINT: MIC
VALUE_OBSERVED: 8
--
ITEM_SMILES: C[C@H](NC(=O)[C@H](CCCN=C(N)N)NC(=O)[C@H](Cc1c[nH]c2ccccc12)NC(=O)[C@H](CCCN=C(N)N)NC(=O)[C@H](Cc1c[nH]c2ccccc12)NC(=O)[C@H](Cc1c[nH]c2ccccc12)NC(=O)[C@H](Cc1c[nH]c2ccccc12)NC(=O)[C@H](CCCN=C(N)N)NC(=O)[C@H](Cc1c[nH]c2ccccc12)NC(=O)[C@@H](N)CCCN=C(N)N)C(N)=O
MEASURED_ENDPOINT: MIC
VALUE_OBSERVED: 1
--
ITEM_SMILES: CC[C@H](C)[C@H](NC(=O)[C@H](C)NC(=O)CNC(=O)[C@@H]1CCCN1C(=O)[C@@H](NC(=O)[C@H](CC(C)C)NC(=O)CNC(=O)[C@H](Cc1c[nH]c2ccccc12)NC(=O)[C@H](CC(C)C)NC(=O)[C@@H](N)Cc1ccccc1)[C@@H](C)CC)C(=O)N[C@@H](CO)C(=O)N[C@@H](C)C(=O)N[C@H](C(=O)N[C@H](C(=O)N[C@@H](CO)C(=O)N[C@@H](CC(C)C)C(=O)N[C@H](C(=O)N[C@@H](CCCCN)C(=O)N[C@@H](CCCCN)C(N)=O)[C@@H](C)CC)[C@@H](C)O)C(C)C
MEASURED_ENDPOINT: MIC
VALUE_OBSERVED: 14.4

Please look at the following compound next.
input: Param item = `NC(N)=NCCC[C@H](NC(=O)[C@H](CCCN=C(N)N)NC(=O)[C@H](Cc1c[nH]c2ccccc12)NC(=O)[C@H](Cc1c[nH]c2ccccc12)NC(=O)[C@H](CCCN=C(N)N)NC(=O)[C@H](CCCN=C(N)N)NC(=O)[C@H](Cc1c[nH]c2ccccc12)NC(=O)[C@H](Cc1c[nH]c2ccccc12)NC(=O)[C@H](CCCN=C(N)N)NC(=O)[C@H](Cc1c[nH]c2ccccc12)NC(=O)[C@H](Cc1c[nH]c2ccccc12)NC(=O)[C@@H](N)CCCN=C(N)N)C(=O)O` ; retrieve measured MIC.
output: 2.7

====

MIC tested on Bacillus subtilis ATCC 6633: recorded values
Numbers only, in µM.

Would you please look over these solved cases?
ITEM_SMILES: CC[C@H](C)[C@H](NC(C)=O)C(=O)N[C@@H](CCCCN)C(=O)N[C@@H](Cc1c[nH]c2ccccc12)C(=O)N[C@@H](C)C(=O)NCC(=O)N[C@@H](CCCCN)C(=O)N[C@@H](Cc1c[nH]c2ccccc12)C(=O)N[C@@H](Cc1c[nH]c2ccccc12)C(=O)N[C@@H](CCCCN)C(=O)N[C@@H](CC(C)C)C(=O)N[C@@H](Cc1ccccc1)C(=O)N[C@@H](CCCCN)C(N)=O
MIC / µM: 2.51
//
ITEM_SMILES: CC[C@H](C)[C@H](N)C(=O)N[C@@H](CC(C)C)C(=O)NCC(=O)N[C@@H](CCCCN)C(=O)N[C@H](C(=O)N[C@@H](Cc1c[nH]c2ccccc12)C(=O)N[C@@H](CCCCN)C(=O)NCC(=O)N[C@@H](CCCCN)C(=O)N[C@@H](CCCCN)C(=O)N[C@@H](CO)C(=O)N[C@@H](CC(C)C)C(=O)N[C@@H](Cc1ccccc1)C(N)=O)[C@@H](C)CC
MIC / µM: 1
//
ITEM_SMILES: CC(C)C[C@H](NC(=O)[C@H](CCCCN)NC(=O)[C@H](CCCCN)NC(=O)[C@H](CC(C)C)NC(=O)[C@H](Cc1c[nH]c2ccccc12)NC(=O)[C@H](CCCCN)NC(=O)[C@H](CC(C)C)NC(=O)[C@H](CC(C)C)NC(=O)[C@H](CCCCN)NC(=O)[C@H](CCCCN)NC(=O)[C@@H](N)CC(C)C)C(N)=O
MIC / µM: 1.42

Fill in MIC for each of the 3 compounds listed.
1. CC(C)C[C@H](NC(=O)[C@H](CCCCN)NC(=O)[C@H](CC(C)C)NC(=O)[C@H](Cc1ccccc1)NC(=O)[C@H](CCCN=C(N)N)NC(=O)[C@H](CCCN=C(N)N)NC(=O)[C@H](Cc1ccccc1)NC(=O)[C@H](Cc1c[nH]c2ccccc12)NC(=O)[C@H](CCCCN)NC(=O)[C@H](CCCN=C(N)N)NC(=O)[C@H](Cc1ccccc1)NC(=O)[C@H](CCCN=C(N)N)NC(=O)[C@H](CCCN=C(N)N)NC(=O)[C@@H](N)Cc1ccccc1)C(=O)N[C@@H](Cc1ccccc1)C(N)=O
2. CC(C)C[C@H](NC(=O)[C@H](C)NC(=O)CNC(=O)[C@H](CC(C)C)NC(=O)[C@@H](N)Cc1ccccc1)C(=O)N[C@@H](Cc1c[nH]c2ccccc12)C(=O)N[C@@H](CC(N)=O)C(=O)N[C@H](C(=O)N[C@@H](C)C(=O)N[C@@H](CCCCN)C(=O)N[C@@H](CO)C(=O)N[C@@H](CC(C)C)C(=O)N[C@@H](Cc1ccccc1)C(N)=O)C(C)C
3. CC(C)C[C@H](NC(=O)[C@H](CC(C)C)NC(=O)[C@H](CCCCN)NC(=O)[C@H](CCCCN)NC(=O)[C@H](CC(C)C)NC(=O)[C@H](CC(C)C)NC(=O)[C@H](CCCCN)NC(=O)[C@H](CCCCN)NC(=O)[C@H](CC(C)C)NC(=O)[C@@H](N)Cc1c[nH]c2ccccc12)C(=O)N[C@@H](CCCCN)C(N)=O

output:
[11.3, 0.8, 1.42]
